Provenance of the data: patent US20110135636A1

tested on: T1, recombinant human EGFR extracellular domain with 6xHis (human, UniProt P00533 25-645)
T1 construct: In-house produced; also called 6xHis EGFR ECD; soluble human EGFR ECD; not shown: 6xHis tag
protocol description: SPR competition, competitor 1208
reported metric: % inhibition (%)
Answer with a number only, understood to be in %.

Answered cases to consult:
binder: antibody 1260 (antibody, human IgG1, kappa, V domains shown, Chimeric IgG1 kappa) VH: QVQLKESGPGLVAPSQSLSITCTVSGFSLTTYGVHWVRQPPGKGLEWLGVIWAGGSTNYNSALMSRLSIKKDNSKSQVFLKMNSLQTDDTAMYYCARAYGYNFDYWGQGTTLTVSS VL: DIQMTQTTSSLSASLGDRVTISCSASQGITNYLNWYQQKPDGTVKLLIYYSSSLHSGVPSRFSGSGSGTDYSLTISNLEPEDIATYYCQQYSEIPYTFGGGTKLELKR
reported metric: % inhibition
unit tag: %
value measured: 33
--
binder: antibody 1030 (antibody, human IgG1, kappa, V domains shown, Chimeric IgG1 kappa) VH: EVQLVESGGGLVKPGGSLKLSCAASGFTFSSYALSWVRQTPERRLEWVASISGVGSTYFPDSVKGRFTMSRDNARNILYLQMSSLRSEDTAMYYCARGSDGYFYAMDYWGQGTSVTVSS VL: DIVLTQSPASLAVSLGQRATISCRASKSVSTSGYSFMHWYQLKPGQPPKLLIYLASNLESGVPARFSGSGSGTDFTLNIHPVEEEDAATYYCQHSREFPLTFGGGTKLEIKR
reported metric: % inhibition
unit tag: %
value measured: 112

Then this binder:
Memo: antibody 1344 (antibody, human IgG1, kappa, V domains shown, Chimeric IgG1 kappa) VH: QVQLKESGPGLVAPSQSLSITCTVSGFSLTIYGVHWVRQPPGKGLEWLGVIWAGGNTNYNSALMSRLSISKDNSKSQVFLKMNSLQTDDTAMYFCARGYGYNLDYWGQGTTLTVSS VL: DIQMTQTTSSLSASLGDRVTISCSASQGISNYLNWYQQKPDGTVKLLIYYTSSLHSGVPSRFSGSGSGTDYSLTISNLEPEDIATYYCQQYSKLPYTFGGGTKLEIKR , reported % inhibition: 3
